target: thrombin (Homo sapiens, UniProt P00734); assay: Thrombin inhibition in the presence of exosite 1 (HirP) and exosite 2 (UFH) ligands; assay type: biochemical; set-up: 6 nM plasma α-thrombin; purchased Haematologic Technologies (Essex Junction, VT); settings: [HirP] 0 nM, pH 7.4, 25 °C; read-out: IC50,app
OBSERVATION TYPE: IC50 (nM)
Answers are plain numbers, in nM.

Query: Identify IC50 associated with the molecule O=c1oc2cc(OCCCCn3cc(COc4ccc(-c5c(-c6ccccc6)c6cc(Cl)cc(Cl)c6oc5=O)cc4)nn3)ccc2c(-c2ccccc2)c1-c1ccc(OS(=O)(=O)O)cc1
Response: 220

Data credit: paper PMC4823711
